# applied conditions: Crystal; visual observation
reported property: Normal melting temperature (°C)

[A] c1ccc2ccccc2c1 [naphthalene]
[B] O=C(O)c1ccccc1 [benzoic acid]
[C] Cc1ccc(C(=O)O)cc1 [4-methylbenzoic acid]
Asked: # desc sort on Normal melting temperature across 3 compounds Give the order by naming the labels one after another as requested.
Given back: C, B, A
(C: 179.60 °C, B: 122.4 °C, A: 80.26 °C)

* * *

# applied conditions: Crystal; visual observation
reported property: Normal melting temperature (°C)

• c1ccc2c(c1)ccc1ccccc12 = 99.24

[P] CCCCCCCCCCCCCCCCCC(=O)O
[Q] O=C(O)CCCCC(=O)O
Asked: In terms of reported Normal melting temperature, does P or Q have the smaller number? Kindly give the label for the entry you pick.
Given back: P
